Every entry's value here was drawn from ChEMBL document CHEMBL1961873.

system-name: Mitogen-activated protein kinase 3 (Homo sapiens) (UniProt P27361);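 further: each value is a mean inhibition figure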
Sequence (P27361 whole entry): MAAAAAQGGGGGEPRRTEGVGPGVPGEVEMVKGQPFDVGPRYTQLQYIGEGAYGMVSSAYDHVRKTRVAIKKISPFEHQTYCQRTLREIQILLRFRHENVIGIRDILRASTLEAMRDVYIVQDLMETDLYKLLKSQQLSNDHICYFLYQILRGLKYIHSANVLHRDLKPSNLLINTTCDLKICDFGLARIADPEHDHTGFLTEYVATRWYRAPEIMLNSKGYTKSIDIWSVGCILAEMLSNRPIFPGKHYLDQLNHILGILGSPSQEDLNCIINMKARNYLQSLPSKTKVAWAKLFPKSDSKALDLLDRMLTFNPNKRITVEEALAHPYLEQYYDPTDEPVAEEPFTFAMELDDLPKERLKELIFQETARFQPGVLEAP
cond: at 0.1 µM
readout-type: inhibition (%)
One number for each entry, in %.

Some entries whose results are on file:
CN(C)c1cc2c(Nc3ccc4c(cnn4Cc4ccccc4)c3)ncnc2cn1 : 0.27
CC(C)c1ccc2c(c1)NC(=O)/C2=N/Nc1ccc(S(N)(=O)=O)cc1 : 1.56
c1ccc(Nc2ncc(-c3ccccc3)o2)cc1 : 6.5
COc1cc(Nc2nccc(-c3cnn4ncccc34)n2)cc(OC)c1 : 2.46
NC(=O)c1cccc(Nc2nccc(Nc3cccc(F)c3)n2)c1 : -0.06

For every record below, what is its inhibition?
1. Nc1ccc(C#Cc2cncnc2Nc2ccc(OCc3cccc(F)c3)c(Cl)c2)cc1
2. COc1cccc(-n2ncc3c(N/N=C/c4ccc(C)cc4)ncnc32)c1
3. O=S(=O)(CCOCc1ccc(-c2ccc3ncnc(Nc4ccc(OCc5cccc(F)c5)c(Cl)c4)c3c2)o1)c1ccccc1
4. Cc1ccc2c(-c3ccnc(Nc4cccc(C(F)(F)F)c4)n3)c(-c3ccccc3)nn2n1
5. COc1cc2ncnc(Nc3ccc(C)c(O)c3)c2cc1OC
6. NS(=O)(=O)c1cccc(Nc2cc(-c3ccc(F)cc3)n[nH]2)c1
7. COc1cc2ncnc(Nc3ccc4c(cnn4Cc4ccccc4)c3)c2cc1OC
8. CS(=O)(=O)Nc1cccc(-c2ccc3c(NC(=O)C4CC4)n[nH]c3c2)c1

output:
1. 3.61
2. 4.71
3. 3.68
4. 5.72
5. 4.96
6. 4.14
7. 1.19
8. 2.44

Batch of 3 compounds: report inhibition for each.
1. CN(C)C(=O)O[C@H]1CN[C@H](C#Cc2cc3ncnc(Nc4ccc(OCc5cccc(F)c5)c(Cl)c4)c3s2)C1
2. CN(C)CCCn1c(-c2nonc2N)nc2cnccc21
3. NS(=O)(=O)c1ccc(Nc2cc(-c3cccc(O)c3)n[nH]2)cc1

output:
1.44
2.32
4.41

Your task in this section: give inhibition for each listed record.
1. Cc1ccc(NC(=O)CC2CC2)cc1-c1ccc(C(=O)NCC2CC2)cc1
2. CC(C)c1ccc(Nc2nccc(-c3cnn4ncccc34)n2)cc1
3. Nc1nccc(C#Cc2cncnc2Nc2ccc(OCc3cccc(F)c3)c(Cl)c2)n1
4. COc1ccc2ncnc(Nc3ccc(OCc4ccccc4)cc3)c2c1
5. NS(=O)(=O)c1ccc(N/N=C2\C(=O)Nc3ccc(Cl)cc32)cc1

output:
[5.26, 0.92, 1.83, 4.06, 4.87]
